Reference for the values: patent US20110190196A1

testedSystem: ATP-binding cassette transporter A1 (ABCA1) (UniProt P41233 1-2261, limits assumed)
Sequence (P41233 whole entry): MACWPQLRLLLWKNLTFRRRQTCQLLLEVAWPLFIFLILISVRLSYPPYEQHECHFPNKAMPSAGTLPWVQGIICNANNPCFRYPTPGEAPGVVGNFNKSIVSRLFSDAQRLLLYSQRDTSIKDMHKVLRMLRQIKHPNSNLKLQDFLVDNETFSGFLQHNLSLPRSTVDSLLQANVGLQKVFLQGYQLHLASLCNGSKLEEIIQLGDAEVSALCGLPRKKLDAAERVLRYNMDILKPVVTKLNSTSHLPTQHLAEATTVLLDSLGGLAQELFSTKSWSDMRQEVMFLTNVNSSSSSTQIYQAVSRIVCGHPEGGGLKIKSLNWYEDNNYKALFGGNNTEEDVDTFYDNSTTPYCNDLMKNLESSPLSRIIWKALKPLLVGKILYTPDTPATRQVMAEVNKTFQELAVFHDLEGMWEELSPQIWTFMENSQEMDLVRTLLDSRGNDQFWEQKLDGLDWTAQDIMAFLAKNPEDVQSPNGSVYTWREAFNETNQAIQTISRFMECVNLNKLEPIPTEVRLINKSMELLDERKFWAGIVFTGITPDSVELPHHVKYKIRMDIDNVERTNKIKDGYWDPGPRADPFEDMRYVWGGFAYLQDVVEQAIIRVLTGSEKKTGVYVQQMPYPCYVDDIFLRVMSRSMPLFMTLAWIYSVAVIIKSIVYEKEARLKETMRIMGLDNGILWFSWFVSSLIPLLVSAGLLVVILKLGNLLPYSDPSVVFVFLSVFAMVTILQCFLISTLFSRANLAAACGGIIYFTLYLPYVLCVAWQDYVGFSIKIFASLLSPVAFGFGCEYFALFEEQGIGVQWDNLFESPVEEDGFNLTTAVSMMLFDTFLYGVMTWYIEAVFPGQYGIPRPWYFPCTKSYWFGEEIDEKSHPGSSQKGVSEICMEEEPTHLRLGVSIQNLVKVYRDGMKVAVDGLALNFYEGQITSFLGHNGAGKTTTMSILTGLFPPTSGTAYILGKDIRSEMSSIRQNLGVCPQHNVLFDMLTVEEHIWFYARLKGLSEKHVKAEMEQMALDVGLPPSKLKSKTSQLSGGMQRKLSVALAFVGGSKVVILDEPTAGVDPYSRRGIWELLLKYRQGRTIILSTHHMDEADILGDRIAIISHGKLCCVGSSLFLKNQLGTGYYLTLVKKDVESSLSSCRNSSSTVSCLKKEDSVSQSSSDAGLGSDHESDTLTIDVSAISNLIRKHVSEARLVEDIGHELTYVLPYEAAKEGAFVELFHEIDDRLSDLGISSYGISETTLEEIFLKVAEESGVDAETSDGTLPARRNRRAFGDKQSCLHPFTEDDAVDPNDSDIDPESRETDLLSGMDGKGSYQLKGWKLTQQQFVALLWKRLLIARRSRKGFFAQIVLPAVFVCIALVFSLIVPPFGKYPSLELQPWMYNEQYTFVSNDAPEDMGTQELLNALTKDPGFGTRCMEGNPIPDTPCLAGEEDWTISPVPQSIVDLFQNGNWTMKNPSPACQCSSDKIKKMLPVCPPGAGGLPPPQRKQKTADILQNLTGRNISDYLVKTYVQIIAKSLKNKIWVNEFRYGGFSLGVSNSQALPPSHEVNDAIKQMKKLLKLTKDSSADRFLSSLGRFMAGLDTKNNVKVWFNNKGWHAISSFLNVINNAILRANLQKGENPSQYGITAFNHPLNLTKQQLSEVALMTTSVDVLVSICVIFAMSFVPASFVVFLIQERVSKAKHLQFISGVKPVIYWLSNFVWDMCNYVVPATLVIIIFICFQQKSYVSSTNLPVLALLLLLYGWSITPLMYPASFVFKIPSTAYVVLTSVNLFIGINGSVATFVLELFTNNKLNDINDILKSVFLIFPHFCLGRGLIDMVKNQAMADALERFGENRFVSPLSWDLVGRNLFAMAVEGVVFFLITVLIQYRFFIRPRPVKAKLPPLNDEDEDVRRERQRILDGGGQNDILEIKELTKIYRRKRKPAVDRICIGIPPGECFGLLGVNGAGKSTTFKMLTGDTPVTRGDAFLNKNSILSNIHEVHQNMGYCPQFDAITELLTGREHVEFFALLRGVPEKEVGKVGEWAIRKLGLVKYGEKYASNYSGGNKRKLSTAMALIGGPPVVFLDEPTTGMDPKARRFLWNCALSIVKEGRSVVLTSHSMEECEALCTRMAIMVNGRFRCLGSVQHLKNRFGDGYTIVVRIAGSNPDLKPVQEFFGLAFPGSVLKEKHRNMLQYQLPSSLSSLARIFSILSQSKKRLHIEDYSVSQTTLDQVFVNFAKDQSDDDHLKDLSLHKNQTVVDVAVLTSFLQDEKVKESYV
experiment: cell-based or functional assay
Recorded measurements of % cholesterol efflux/4 hours at 1.0 µg/ml, one per entry
Your answer should be a plain number; it is taken to be in %.

Below: 4 binders and their reported % cholesterol efflux/4 hours at 1.0 µg/ml.
binder | quantitativeReadout
ELRERLEAWLELLRELLERL [N1154-7] | 2.26
DLRDRLDAWLDLLRDLLDRL [N1154-11] | 2.56
DLRDKLDAWLDLLRDLLDRL [N1154-9] | 1.81
ELREKLEAWLELLRELLERL [N1154-6] | 2.51

Query: Which measured % cholesterol efflux/4 hours at 1.0 µg/ml value corresponds to ELRDKLEAWLDLLRELLERL [N1154-8] ?
Result: 1.51

Query: Record request: % cholesterol efflux/4 hours at 1.0 µg/ml value, item ELRDRLEAWLDLLRELLERL [N1154-10]
Result: 2.12
